Target: T1, amino acid residues 26-148 of human ANGPTL4 fused in-line to mouse IgG2a (hANGPTL4-mFc) (human)
T1 construct: contains the N-terminal coiled-coil region
T1 chain: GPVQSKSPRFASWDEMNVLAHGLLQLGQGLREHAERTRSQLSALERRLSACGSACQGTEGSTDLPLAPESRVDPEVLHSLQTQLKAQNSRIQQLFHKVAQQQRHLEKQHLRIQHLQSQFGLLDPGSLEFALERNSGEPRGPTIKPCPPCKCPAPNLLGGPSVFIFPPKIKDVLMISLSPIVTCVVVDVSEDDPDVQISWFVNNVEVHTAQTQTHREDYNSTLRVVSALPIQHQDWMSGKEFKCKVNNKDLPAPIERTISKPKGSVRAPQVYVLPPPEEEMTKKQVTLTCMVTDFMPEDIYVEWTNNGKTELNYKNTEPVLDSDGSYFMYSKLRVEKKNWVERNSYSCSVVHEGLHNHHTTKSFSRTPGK
Assay: SPR (Biacore T100), hANGPTL4-mFc captured by anti-mouse IgG, antibody injected, 25° C.
pKd: −log10 of the molar value.
reported-metric: pKd

binder	reported-metric	value-reported
H1H285P (antibody, V domains shown, Fully human antibody, H1H prefix (human IgG1)) VH: EVQLVESGGGLVQPGGSLRLSCAASGFTFSRYDMHWVRQVTGKGLEWVSGIGTAGDTYYPGSVKGRFTISRENDKNSLYLQMNSLRVGDTAVYYCARGDSKNYYVGDYFDYWGQGTLVTVSS VL: DIQMTQSPSTLSASVGDRVTFTCRASHSIGNWLAWYQQKPGKAPKVLIYEASSLEDGVPSRFSGSGSGTEFTLTISSLQPDDFATYYCQQYDTYFRTFGQGTKVEIK	pKd	10.03
